Tested on: HCV proteins in Rep5.1 cells (replicon cell line)
Assay: Inhibitory activity of HCV: cell-based ELISA in replicon cell line Rep5.1 (decrease of HCV proteins)
Parameters: species or system hepatitis C virus
Details: Hepatitis C virus, 72 h, Rep5.1 cells, 72 hours with drug, decrease of HCV proteins measured by HCV antibody; Table 1; read-out: Level (IC50 values classified)
pIC50: −log10 of the molar value.
Consider the following compounds; for each one, report its pIC50.

Challenge: // pIC50 lookup, key: COc1cc(COC(=O)C2=C(C)NC(=S)NC2)ccc1OCc1ccccc1 [Compound 58]
Response given: > 6.00

Challenge: Again, but for CC(=O)OCC1NC(=S)NC(C)=C1C(=O)OCCCCc1ccsc1 (stereo not drawn) [26″]
Response given: 5.00 to 6.00

Challenge: Again, but for COc1cccc(COC(=O)C2=C(C)NC(=S)NC2)c1 [Compound 120]
Response given: 5.00 to 6.00

Challenge: Again, but for CC1=C(C(=O)OCCc2cc(C)cc(C)c2)CNC(=S)N1 [Compound 175]
Response given: > 6.00

Challenge: Again, but for CC1=C(C(=O)OCc2cccc(I)c2)CNC(=S)N1 [Compound 75]
Response given: > 6.00

Challenge: Again, but for CC1=C(C(=O)OCc2ccc3nc(C)oc3c2)CNC(=S)N1 [Compound 256]
Response given: 5.00 to 6.00

Challenge: Again, but for CC1=C(C(=O)OCCc2ccccc2F)CNC(=S)N1 [Compound 116]
Response given: > 6.00

Challenge: Again, but for CC1=C(C(=O)OCC2CCCC2)CNC(=S)N1 [Compound 68]
Response given: > 6.00

Challenge: Again, but for CC1=C(C(=O)OCc2ccco2)CNC(=S)N1 [Compound 12]
Response given: 4.70 to 5.00

Challenge: Again, but for CC1=C(C(=O)OCCc2c(F)cccc2F)C(CO)NC(=S)N1 (stereo not drawn) [39″]
Response given: 4.70 to 5.00

Challenge: Again, but for CC1=C(C(=O)OCc2cc(Cl)ccc2[N+](=O)[O-])C(CO)NC(=S)N1 (stereo not drawn) [47″]
Response given: < 4.70

Challenge: Again, but for CCOc1ccccc1CCOC(=O)C1=C(C)NC(=S)NC1CS(=O)(=O)C(C)(C)C (stereo not drawn) [30″]
Response given: < 4.70

Challenge: Again, but for CC1=C(C(=O)OCc2ccccc2)CNC(=S)N1 [Compound 6]
Response given: > 6.00

Challenge: Again, but for CC1=C(C(=O)OCc2ccc(Cl)s2)CNC(=S)N1 [Compound 233]
Response given: > 6.00

Challenge: Again, but for CC1=C(C(=O)OCc2cccc(C)c2)CNC(=S)N1 [Compound 90]
Response given: > 6.00

Challenge: Again, but for CC1=C(C(=O)OCc2ccc(Br)cc2)CNC(=S)N1 [Compound 60]
Response given: > 6.00

Challenge: Again, but for CC1=C(C(=O)OCCCc2ccsc2F)C(CF)NC(=S)N1 (stereo not drawn) [52′]
Response given: < 4.70

Challenge: Again, but for CC1=C(C(=O)OCc2ccc(Cl)cc2Cl)CNC(=S)N1 [Compound 41]
Response given: > 6.00

Challenge: Again, but for CC1=C(C(=O)OC(C)CCc2ccccc2)CNC(=S)N1 (stereo not drawn) [Compound 42]
Response given: > 6.00

Challenge: Again, but for O=C(OCc1ccccc1)C1=C(c2cccc3ccccc23)NC(=S)NC1 [Compound 17]
Response given: < 4.70

Challenge: Again, but for CC1=C(C(=O)SCc2ccco2)CNC(=S)N1 [38′]
Response given: > 6.00

---

System: HCV proteins in Rep5.1 cells (replicon cell line)
Assay: Inhibitory activity of HCV: cell-based ELISA in replicon cell line Rep5.1 (decrease of HCV proteins)
Set-up: species or system hepatitis C virus
Conditions: Hepatitis C virus, 72 h, Rep5.1 cells, 72 hours with drug, decrease of HCV proteins measured by HCV antibody; Table 1; read-out: Level (IC50 values classified)
pIC50: −log10 of the molar value.
Test Readout: pIC50

Challenge: What measured pIC50 is associated with "CC1=C(C(=O)OCc2ccc(C)c(C)c2)CNC(=S)N1" on HCV proteins in Rep5.1 cells (replicon cell line)?
Response given: > 6.00

Challenge: Again, but for CC1=C(C(=O)OCCc2c(F)cccc2Cl)C(CF)NC(=S)N1 (centres unmarked)
Response given: > 6.00

Challenge: Again, but for "CC1=C(C(=O)OCCc2cn(C)c3ccccc23)CNC(=S)N1"
Response given: 5.00 to 6.00

Challenge: Again, but for "CC1=C(C(=O)OCc2cc3ccccc3s2)CNC(=S)N1"
Response given: > 6.00

Challenge: Again, but for COc1cscc1CCOC(=O)C1=C(C)NC(=S)NC1CF (centres unmarked)
Response given: 4.70 to 5.00

---

Consider the following molecules; for each one, report its pIC50.
System: HCV proteins in Rep5.1 cells (replicon cell line)
Test: Inhibitory activity of HCV: cell-based ELISA in replicon cell line Rep5.1 (decrease of HCV proteins)
Design: species or system hepatitis C virus
Conditions: Hepatitis C virus, 72 h, Rep5.1 cells, 72 hours with drug, decrease of HCV proteins measured by HCV antibody; Table 1; read-out: Level (IC50 values classified)
pIC50: −log10 of the molar value.

Challenge: // pIC50 lookup, key: "COc1ccc(COC(=O)C2=C(C)NC(=S)NC2)cc1OC"
Response given: < 4.70

Challenge: Again, but for CC1=C(C(=O)OCc2scc(C)c2Cl)C(CF)NC(=S)N1 (centres unmarked)
Response given: > 6.00

Challenge: Again, but for "CC1=C(C(=O)OCc2cccc(C)c2C)CNC(=S)N1"
Response given: > 6.00

Challenge: Again, but for CC1=C(C(=O)OCc2ccccc2C(F)(F)F)C(CF)NC(=S)N1 (centres unmarked)
Response given: > 6.00

Challenge: Again, but for COc1ccc(C2(COC(=O)C3=C(C)NC(=S)NC3CF)CC2)cc1 (centres unmarked)
Response given: 5.00 to 6.00

Challenge: Again, but for "COCCN(C)c1ccc(CCOC(=O)C2=C(C)NC(=S)NC2)cc1"
Response given: > 6.00

Challenge: Again, but for CC1=C(C(=O)OCCSc2nc3ccccc3o2)C(CF)NC(=S)N1 (centres unmarked)
Response given: 5.00 to 6.00

Challenge: Again, but for CC(=O)Oc1ccccc1CCC(=O)OCC1NC(=S)NC(C)=C1C(=O)OCCc1cccc([N+](=O)[O-])c1 (centres unmarked)
Response given: 5.00 to 6.00

Challenge: Again, but for CC1=C(C(=O)OCc2ccc([S+](C)[O-])cc2)CNC(=S)N1 (centres unmarked)
Response given: > 6.00

Challenge: Again, but for CSCCCOC(=O)C1=C(C)NC(=S)NC1CF (centres unmarked)
Response given: < 4.70

Challenge: Again, but for CC1=C(C(=O)OCCCc2sccc2C)C(CO)NC(=S)N1 (centres unmarked)
Response given: 5.00 to 6.00

Challenge: Again, but for CSCCCOC(=O)C1=C(C)NC(=S)NC1CO (centres unmarked)
Response given: < 4.70

Challenge: Again, but for "CC1=C(C(=O)OCc2ccccc2C)CNC(=S)N1"
Response given: > 6.00

Challenge: Again, but for CC1=C(C(=O)OCCC2CCc3ccccc32)CNC(=S)N1 (centres unmarked)
Response given: > 6.00

Challenge: Again, but for CC1=C(C(=O)OCCc2cccc(C(F)(F)F)c2)C(COC(=O)C(C)N)NC(=S)N1 (centres unmarked)
Response given: > 6.00

Challenge: Again, but for CC1=C(C(=O)OCCc2cc(Cl)ccc2[N+](=O)[O-])C(CO)NC(=S)N1 (centres unmarked)
Response given: 5.00 to 6.00

Challenge: Again, but for "CC1=C(C(=O)OCc2sccc2C)CNC(=S)N1"
Response given: 5.00 to 6.00

Challenge: Again, but for "CC1=C(C(=O)OCc2sc3sc(C)nc3c2C)CNC(=S)N1"
Response given: 5.00 to 6.00

Challenge: Again, but for "CC1=C(C(=O)OCc2ccc(C(F)(F)F)cc2)CNC(=S)N1"
Response given: > 6.00

Challenge: Again, but for CC1=C(C(=O)OCCc2ccsc2)C(CF)NC(=S)N1 (centres unmarked)
Response given: 5.00 to 6.00

---

System: HCV proteins in Rep5.1 cells (replicon cell line)
Experiment: Inhibitory activity of HCV: cell-based ELISA in replicon cell line Rep5.1 (decrease of HCV proteins)
Design: species or system hepatitis C virus
Details: Hepatitis C virus, 72 h, Rep5.1 cells, 72 hours with drug, decrease of HCV proteins measured by HCV antibody; Table 1; read-out: Level (IC50 values classified)
Test Readout: IC50

Challenge: What measured IC50 is associated with "COc1ccc(OC)c(COC(=O)C2=C(C)NC(=S)NC2)c1" on HCV proteins in Rep5.1 cells (replicon cell line)?
Response given: 1000 to 10000 nM

Challenge: Again, but for "CCN(CCOC(=O)C1=C(C)NC(=S)NC1)c1cccc(C)c1"
Response given: 1000 to 10000 nM

Challenge: Again, but for "CC1=C(C(=O)OCCCc2ccccc2)CNC(=S)N1"
Response given: < 1000 nM

Challenge: Again, but for CC1=C(C(=O)OCCc2csc([N+](=O)[O-])c2)C(CF)NC(=S)N1 (centres unmarked)
Response given: > 20000 nM

Challenge: Again, but for CC1=C(C(=O)OCCc2cccc(Cl)c2)C(COC(=O)OCc2oc(=O)oc2C)NC(=S)N1 (centres unmarked)
Response given: < 1000 nM
